System: SF-268 CNS
Test: NCI-60 one-dose screen, 48 h (100 = growth as untreated, 0 = no growth, -100 = all killed)
Details: 10 µM unless noted
Compounds without any hit were thinned out: in the full panel of roughly 83,000, 20% have a hit.
assay metric: growth (%)
Numeric only. Scale: %

In the examples that follow, each entry is paired with its recorded growth.
compound smiles: C=C(C)[C@@H]1CC[C@]2(C)[C@H](CC=C3[C@@H]4CC(C)(C)CC[C@]4(C(=O)NCC#CCN4CCN(C)CC4)CC[C@]32C)[C@@]1(C)CCC#N
unit abbreviation: %
observed: 65.4

compound smiles: NS(=O)(=O)c1ccc(Nc2nc(N/N=C/c3ccc(C(F)(F)F)cc3)nc(Nc3ccccc3)n2)cc1
unit abbreviation: %
observed: 50.4

For the molecule O=C(Nc1cccc(-c2nc(-c3ccc(NC(=O)c4cccs4)cc3Cl)no2)c1)Nc1ccc(NC(=O)C2CC2)c(C(F)(F)F)c1 , report growth.
-33.8

For the molecule Cc1csc(Nc2cccc(Nc3nc(C)cs3)c2)n1 , report growth.
85.2

For the molecule Cc1ccc(NC(=O)c2ccc(CN3CCN(C)CC3)c(C(F)(F)F)c2)cc1Oc1ccc(-c2[nH]nc3ncnc(N)c23)cc1 , report growth.
88

For the molecule Oc1ccc(CSc2nnc(-c3ccc(Br)cc3)o2)c2cccnc12 , report growth.
31.3

For the molecule O=C(/C=C/Nc1ccc(S(=O)(=O)O)cc1)c1ccc(F)cc1 , report growth.
102

For the molecule COc1ccc(CN2C(=O)/C(=C/c3nc(CO)cs3)SC2=S)cc1 , report growth.
98.8

For the molecule CC1(COc2ccc3ncc(C#Cc4cncc(C(=O)Nc5cc(C(C)(C)C)on5)c4)n3n2)COC1 , report growth.
53.9
